- test system: Melanocortin receptor 4 (Homo sapiens, UniProt P32245)
- Sequence (P32245 whole entry): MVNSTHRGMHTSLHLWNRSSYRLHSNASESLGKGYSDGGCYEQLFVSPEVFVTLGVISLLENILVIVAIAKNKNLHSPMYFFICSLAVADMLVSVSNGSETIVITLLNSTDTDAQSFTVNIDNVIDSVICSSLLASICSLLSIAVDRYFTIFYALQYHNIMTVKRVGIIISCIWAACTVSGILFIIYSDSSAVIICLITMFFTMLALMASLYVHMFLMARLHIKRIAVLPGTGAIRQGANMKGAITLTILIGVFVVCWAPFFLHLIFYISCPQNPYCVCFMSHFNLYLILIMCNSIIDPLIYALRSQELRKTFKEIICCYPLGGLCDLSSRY
- experiment notes: Stimulation of cAMP levels in the HEK293 cell line at 10 uM
- Format: functional, cell-based
measured quantity: Stimulation (%)

Would you please look over these solved cases?
1) CC(C)CNCC1(N2CCN(C(=O)[C@@H](Cc3ccc(Cl)cc3Cl)NC(=O)CCN)CC2)CCCCC1 0.7
2) NCCC(=O)N[C@H](Cc1ccc(Cl)cc1Cl)C(=O)N1CCN(C2(CNCc3ccccc3)CCCCC2)CC1 5.1
3) COC(=O)c1ccc(NC(=O)NCC2(N3CCN(C(=O)[C@@H](Cc4ccc(Cl)cc4Cl)NC(=O)CCN)CC3)CCCCC2)cc1 12

I: NCCC(=O)N[C@H](Cc1ccc(Cl)cc1Cl)C(=O)N1CCN(C2(CNCc3ccc(F)cc3)CCCCC2)CC1
II: CC(C)(C)CCNCC1(N2CCN(C(=O)[C@@H](Cc3ccc(Cl)cc3Cl)NC(=O)CCN)CC2)CCCCC1
III: NCCC(=O)N[C@H](Cc1ccc(Cl)cc1Cl)C(=O)N1CCN(C2(CNC(=O)c3ccc(Br)cc3)CCCCC2)CC1
Arrange these compounds by their Stimulation, starting with the largest number. Reply with the labels, ordered as the question asks.
III, I, II
(III: 12%, I: 6.4%, II: 3.6%)

A: NCCC(=O)N[C@H](Cc1ccc(Cl)cc1Cl)C(=O)N1CCN(C2(CNCc3cccs3)CCCCC2)CC1
B: NCCC(=O)N[C@H](Cc1ccc(Cl)cc1Cl)C(=O)N1CCN(C2(CNC(=O)Cc3cccs3)CCCCC2)CC1
Between A and B , whose measured Stimulation reads higher? Answer with the label corresponding to your selection.
A
(A: 8.1%, B: 3.4%)
